Tested on: affinity purified β2GPI-dependent antiphospholipid antibody
PROCEDURE DETAILS: Competitive inhibition ELISA: recombinant β2GPI proteins compete for antibody binding to coated full length recombinant β2GPI
Design: species or system human
EXPERIMENTAL CONDITIONS: Ab 6644
What Max (maximum inhibition observed at concentrations tested) was measured for each of the following?
Answers are plain numbers, in %.

Example cases with answers are listed next.
-2345: recombinant β2GPI deletion mutant with domains 2-5 (protein) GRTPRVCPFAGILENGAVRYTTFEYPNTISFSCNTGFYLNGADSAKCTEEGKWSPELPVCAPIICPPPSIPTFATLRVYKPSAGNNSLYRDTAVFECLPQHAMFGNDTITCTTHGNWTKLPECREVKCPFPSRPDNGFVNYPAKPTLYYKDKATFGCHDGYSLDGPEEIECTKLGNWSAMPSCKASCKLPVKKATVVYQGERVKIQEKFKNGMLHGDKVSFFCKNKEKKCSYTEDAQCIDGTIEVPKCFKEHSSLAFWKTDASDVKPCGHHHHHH :: 10
--345: recombinant β2GPI deletion mutant with domains 3, 4, 5 (protein) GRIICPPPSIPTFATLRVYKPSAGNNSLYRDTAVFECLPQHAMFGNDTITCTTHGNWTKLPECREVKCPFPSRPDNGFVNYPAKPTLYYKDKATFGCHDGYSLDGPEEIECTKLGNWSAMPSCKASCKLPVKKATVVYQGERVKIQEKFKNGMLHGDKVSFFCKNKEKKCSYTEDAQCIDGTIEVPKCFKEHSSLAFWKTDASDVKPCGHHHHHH :: 10

Let us move to another entry and its Max (maximum inhibition observed at concentrations tested).
Per the record, recombinant β2GPI domain 5 with GlyHis6 (----5) (protein) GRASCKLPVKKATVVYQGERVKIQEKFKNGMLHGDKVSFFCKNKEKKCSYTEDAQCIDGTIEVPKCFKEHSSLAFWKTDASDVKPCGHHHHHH has Max (maximum inhibition observed at concentrations tested) of 10
